Where do the numbers come from? From the RNAGym collection of RNA variant scans (doi:10.1073/pnas.2313332121).

B1: TPR t1 (parent)
chain: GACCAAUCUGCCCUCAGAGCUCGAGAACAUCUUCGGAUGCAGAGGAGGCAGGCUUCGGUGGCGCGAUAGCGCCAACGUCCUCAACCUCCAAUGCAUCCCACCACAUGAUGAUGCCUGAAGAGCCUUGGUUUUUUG

Variants of: B1
Assay: polymerase ribozyme fitness, log enrichment relative to wild type (log ratio); higher = more active; in vitro selection for triplet polymerase activity
measured-parameter: polymerase ribozyme fitness (log ratio)
Answer field: number only, no words.

polymerase ribozyme fitness (log ratio) measured on C11U C80U G113C = -3.93

// C49G C53G G69C C72U : polymerase ribozyme fitness (log ratio) value = -1.21

Reported polymerase ribozyme fitness (log ratio) ( U9C G60U A105U A119G ) = -1.05

Lookup result for C56A G69A ; measured polymerase ribozyme fitness (log ratio): -3.3

Looking up A18C C40U G48A C56G A84C C114U , I see its polymerase ribozyme fitness (log ratio) listed as -5.13

The reported value for A5U G45U A46C in terms of polymerase ribozyme fitness (log ratio) is -1.71

The recorded polymerase ribozyme fitness (log ratio) for entry C13A G44U C72U U78C G128A equals -6.14

get_value(item= C40G G57A A84C U112A G122A , readout=polymerase ribozyme fitness (log ratio)) returns -3.59

// recorded polymerase ribozyme fitness (log ratio) for C20U G93U : -3.35

# polymerase ribozyme fitness (log ratio) (variant: C79G U131G ) is -1.06

// polymerase ribozyme fitness (log ratio) value for G69A C73U U96G : -3.55

Measured polymerase ribozyme fitness (log ratio), A6U G61A C79G : -1.4

# polymerase ribozyme fitness (log ratio) of C70A G117U A121C U130C = -4.1

Per the records, this variant ( G44C G63A ) has polymerase ribozyme fitness (log ratio) equal to 0.0487

Just so you know, measured polymerase ribozyme fitness (log ratio) for A24G G63U came out at -3.19

# polymerase ribozyme fitness (log ratio) of G113C G120U = -3.23

Lookup result for A27C G60A G110A ; measured polymerase ribozyme fitness (log ratio): -6.05

The variant listed as G45A A46C C49U C101A U112G U131A shows polymerase ribozyme fitness (log ratio) equal to -5.02

Lab note: A5U C11A C115G gave polymerase ribozyme fitness (log ratio) of -6.5

For C13U G58A C73U the variant record lists polymerase ribozyme fitness (log ratio) as -0.277

// C15G C62U C79A A95G G117U : polymerase ribozyme fitness (log ratio) value = -1.98

Sure, the documented polymerase ribozyme fitness (log ratio) for U54A C73U A121U U130A is 2.07
